System: 857933-349-R-J2-PDC complex spheroid viability
measurementDescription: Anticancer human tumor 857933-349-R-J2-PDC patient-derived colon adenocarcinoma cell line growth inhibition [POLQ]
conditionInfo: second compound 3.16 µM; first compound 0.0316 µM; stronger effect = lower value
Can you tell me viability, T/C for the items I'm about to list?

Task: Indicate the recorded viability, T/C value for this compound: Nc1ccn(C2OC(CO)C(O)C2(F)F)c(=O)n1 (stereo not drawn) + Nc1ccc(C#CCN(C(=O)Cc2ncc(C(F)(F)F)cc2C(F)(F)F)c2ccc(F)cc2)nn1
Output: 69.6%

Task: Indicate the recorded viability, T/C value for this compound: COc1cc2cc(C(=O)CCC(=O)O)sc2cc1OC + Nc1ccc(C#CCN(C(=O)Cc2ncc(C(F)(F)F)cc2C(F)(F)F)c2ccc(F)cc2)nn1
Output: 102%

Task: Indicate the recorded viability, T/C value for this compound: O=C(c1cc(Cc2n[nH]c(=O)c3ccccc23)ccc1F)N1CCN(C(=O)C2CC2)CC1 + COC1C(OC(N)=O)C(O)C(Oc2ccc3c(O)c(NC(=O)c4ccc(O)c(CC=C(C)C)c4)c(=O)oc3c2C)OC1(C)C
Output: 92.8%

====

Test system: 857933-349-R-J2-PDC complex spheroid viability
measurementDescription: Anticancer human tumor 857933-349-R-J2-PDC cell line growth inhibition [POLQ];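 note: spheroids exposed to compounds for seven days before readout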
conditionInfo: second compound 3.16 µM; first compound 0.0316 µM; stronger effect = lower value
Can you tell me viability, T/C for the items I'm about to list?
# number only, unit % dropped from output

Task: Indicate the recorded viability, T/C value for this compound: C#Cc1c(F)ccc2cc(O)cc(-c3ncc4c(N5CC6CCC(C5)N6)nc(OCC56CCCN5CC(F)C6)nc4c3F)c12 (configuration not stated) + COC1C(OC(N)=O)C(O)C(Oc2ccc3c(O)c(NC(=O)c4ccc(O)c(CC=C(C)C)c4)c(=O)oc3c2C)OC1(C)C
Output: 96.4

Task: Indicate the recorded viability, T/C value for this compound: CNCc1ccc(-c2[nH]c3cc(F)cc4c3c2CCNC4=O)cc1 + Cc1cccc(N(C)C(=O)C2C(O)CCN2c2nc(C)cc(C(F)(F)F)c2C#N)c1
Output: 88.7

Task: Indicate the recorded viability, T/C value for this compound: COc1cc2cc(C(=O)CCC(=O)O)sc2cc1OC + COC1C(OC(N)=O)C(O)C(Oc2ccc3c(O)c(NC(=O)c4ccc(O)c(CC=C(C)C)c4)c(=O)oc3c2C)OC1(C)C
Output: 90.6

Task: Indicate the recorded viability, T/C value for this compound: CCCS(=O)(=O)Nc1ccc(F)c(C(=O)c2c[nH]c3ncc(-c4ccc(Cl)cc4)cc23)c1F + Nc1ccc(C#CCN(C(=O)Cc2ncc(C(F)(F)F)cc2C(F)(F)F)c2ccc(F)cc2)nn1
Output: 77.1

Task: Indicate the recorded viability, T/C value for this compound: COc1cccc(OCCCN)c1-c1cc(Nc2cnc(C#N)cn2)n[nH]1 + Cc1cccc(N(C)C(=O)C2C(O)CCN2c2nc(C)cc(C(F)(F)F)c2C#N)c1
Output: 81.8

Task: Indicate the recorded viability, T/C value for this compound: COc1cc(C2c3cc4c(cc3C(OC3OC5COC(C)OC5C(O)C3O)C3COC(=O)C23)OCO4)cc(OC)c1O (configuration not stated) + COC1C(OC(N)=O)C(O)C(Oc2ccc3c(O)c(NC(=O)c4ccc(O)c(CC=C(C)C)c4)c(=O)oc3c2C)OC1(C)C
Output: 88.2

Task: Indicate the recorded viability, T/C value for this compound: Nc1ccn(C2OC(CO)C(O)C2(F)F)c(=O)n1 (configuration not stated) + COC1C(OC(N)=O)C(O)C(Oc2ccc3c(O)c(NC(=O)c4ccc(O)c(CC=C(C)C)c4)c(=O)oc3c2C)OC1(C)C
Output: 82.1

Task: Indicate the recorded viability, T/C value for this compound: CCc1c2c(nc3ccc(O)cc13)-c1cc3c(c(=O)n1C2)COC(=O)[C@]3(O)CC + Cc1cccc(N(C)C(=O)C2C(O)CCN2c2nc(C)cc(C(F)(F)F)c2C#N)c1
Output: 23.5

Task: Indicate the recorded viability, T/C value for this compound: Cn1ncnc1[C@H]1c2n[nH]c(=O)c3cc(F)cc(c23)N[C@@H]1c1ccc(F)cc1 + COC1C(OC(N)=O)C(O)C(Oc2ccc3c(O)c(NC(=O)c4ccc(O)c(CC=C(C)C)c4)c(=O)oc3c2C)OC1(C)C
Output: 87.8

Task: Indicate the recorded viability, T/C value for this compound: O=C(Nc1ccc(O)c(NS(=O)(=O)c2ccc(F)cc2)c1)c1ccc(-c2ccccc2)cc1 + COC1C(OC(N)=O)C(O)C(Oc2ccc3c(O)c(NC(=O)c4ccc(O)c(CC=C(C)C)c4)c(=O)oc3c2C)OC1(C)C
Output: 101

Task: Indicate the recorded viability, T/C value for this compound: CCc1cc2c(N3CCc4c(cc(Cn5ccnc5)cc4-c4cn(C)nc4C(F)(F)F)C3=O)ccnc2c(OC)n1 + Cc1cccc(N(C)C(=O)C2C(O)CCN2c2nc(C)cc(C(F)(F)F)c2C#N)c1
Output: 97.8

Task: Indicate the recorded viability, T/C value for this compound: CC1COCCN1c1cc(-c2ccnn2C)c2ccnc(-c3ccn[nH]3)c2n1 (configuration not stated) + Nc1ccc(C#CCN(C(=O)Cc2ncc(C(F)(F)F)cc2C(F)(F)F)c2ccc(F)cc2)nn1
Output: 76.4

====

Can you tell me pIC50 for the items I'm about to list?
System: 857933-349-R-J2-PDC complex spheroid viability
measurementDescription: Anticancer human tumor 857933-349-R-J2-PDC cell line growth inhibition [POLQ];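 note: spheroids exposed to compounds for seven days before readout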
conditionInfo: curve of first compound; second compound 1 µM
When answering, recall that pIC50 equals minus log10 of the concentration in mol/L, and write that number alone.

Task: Send back 857933-349-R-J2-PDC complex spheroid viability pIC50 of CCCS(=O)(=O)Nc1ccc(F)c(C(=O)c2c[nH]c3ncc(-c4ccc(Cl)cc4)cc23)c1F + COC1C(OC(N)=O)C(O)C(Oc2ccc3c(O)c(NC(=O)c4ccc(O)c(CC=C(C)C)c4)c(=O)oc3c2C)OC1(C)C only.
Output: 5.24

Task: Send back 857933-349-R-J2-PDC complex spheroid viability pIC50 of Nc1ccn(C2OC(CO)C(O)C2(F)F)c(=O)n1 (stereo not given) + Nc1ccc(C#CCN(C(=O)Cc2ncc(C(F)(F)F)cc2C(F)(F)F)c2ccc(F)cc2)nn1 only.
Output: 6.92

Task: Send back 857933-349-R-J2-PDC complex spheroid viability pIC50 of CC1COCCN1c1cc(-c2ccnn2C)c2ccnc(-c3ccn[nH]3)c2n1 (stereo not given) + COC1C(OC(N)=O)C(O)C(Oc2ccc3c(O)c(NC(=O)c4ccc(O)c(CC=C(C)C)c4)c(=O)oc3c2C)OC1(C)C only.
Output: 6.59

Task: Send back 857933-349-R-J2-PDC complex spheroid viability pIC50 of CC1COCCN1c1cc(-c2ccnn2C)c2ccnc(-c3ccn[nH]3)c2n1 (stereo not given) + Nc1ccc(C#CCN(C(=O)Cc2ncc(C(F)(F)F)cc2C(F)(F)F)c2ccc(F)cc2)nn1 only.
Output: 6.35

====

Tested on: 857933-349-R-J2-PDC complex spheroid viability
measurementDescription: Anticancer human tumor 857933-349-R-J2-PDC cell line growth inhibition [POLQ];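 note: spheroids exposed to compounds for seven days before readout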
conditionInfo: second compound 3.16 µM; first compound 10 µM; stronger effect = lower value
Kindly apply the following: met if viability, T/C is less than 60%, not met in every other case.

Task: viability, T/C under 60%? Item: O=C(Nc1ccc(O)c(NS(=O)(=O)c2ccc(F)cc2)c1)c1ccc(-c2ccccc2)cc1 + Cc1cccc(N(C)C(=O)C2C(O)CCN2c2nc(C)cc(C(F)(F)F)c2C#N)c1
Output: not met

Task: viability, T/C under 60%? Item: CC1COCCN1c1cc(-c2ccnn2C)c2ccnc(-c3ccn[nH]3)c2n1 (stereo not given) + Cc1cccc(N(C)C(=O)C2C(O)CCN2c2nc(C)cc(C(F)(F)F)c2C#N)c1
Output: met

Task: viability, T/C under 60%? Item: COc1cc2cc(C(=O)CCC(=O)O)sc2cc1OC + COC1C(OC(N)=O)C(O)C(Oc2ccc3c(O)c(NC(=O)c4ccc(O)c(CC=C(C)C)c4)c(=O)oc3c2C)OC1(C)C
Output: not met

Task: viability, T/C under 60%? Item: C=CC(=O)N1CCN(c2nc(=O)n(-c3c(C)ccnc3C(C)C)c3nc(-c4c(O)cccc4F)c(F)cc23)C(C)C1 (stereo not given) + Nc1ccc(C#CCN(C(=O)Cc2ncc(C(F)(F)F)cc2C(F)(F)F)c2ccc(F)cc2)nn1
Output: not met

Task: viability, T/C under 60%? Item: COc1cc(C2c3cc4c(cc3C(OC3OC5COC(C)OC5C(O)C3O)C3COC(=O)C23)OCO4)cc(OC)c1O (stereo not given) + COC1C(OC(N)=O)C(O)C(Oc2ccc3c(O)c(NC(=O)c4ccc(O)c(CC=C(C)C)c4)c(=O)oc3c2C)OC1(C)C
Output: met

Task: viability, T/C under 60%? Item: O=C(c1cc(Cc2n[nH]c(=O)c3ccccc23)ccc1F)N1CCN(C(=O)C2CC2)CC1 + Cc1cccc(N(C)C(=O)C2C(O)CCN2c2nc(C)cc(C(F)(F)F)c2C#N)c1
Output: not met

Task: viability, T/C under 60%? Item: COc1ccc([C@@H](O)c2cc(-c3ncnc4cc(N5CCOCC5)ccc34)c(F)cc2Cl)nn1 + COC1C(OC(N)=O)C(O)C(Oc2ccc3c(O)c(NC(=O)c4ccc(O)c(CC=C(C)C)c4)c(=O)oc3c2C)OC1(C)C
Output: not met

Task: viability, T/C under 60%? Item: CC1COCCN1c1cc(-c2ccnn2C)c2ccnc(-c3ccn[nH]3)c2n1 (stereo not given) + Nc1ccc(C#CCN(C(=O)Cc2ncc(C(F)(F)F)cc2C(F)(F)F)c2ccc(F)cc2)nn1
Output: met

Task: viability, T/C under 60%? Item: COc1cc(C2c3cc4c(cc3C(OC3OC5COC(C)OC5C(O)C3O)C3COC(=O)C23)OCO4)cc(OC)c1O (stereo not given) + Nc1ccc(C#CCN(C(=O)Cc2ncc(C(F)(F)F)cc2C(F)(F)F)c2ccc(F)cc2)nn1
Output: met
